# Test system: Zea mays
# method_description: Greenhouse post-emergence herbicidal activity on crop ZEAMX (corn, maize)
# Type: in vivo
# Design: key: 0 = no damage/normal growth, 100 = no emergence or complete destruction
# experimental_context: ZEAMX (corn, crop), 0.031 kg/ha, scale 0 to 100
measured_endpoint: Herbicidal activity
Reply with just the number.

# smiles_representation, tgt, measured_endpoint, quantitative_readout
measured = [
    ("CN(c1ccc(Cl)c(C2=C(O)c3ncccc3C(C)(C)S2(=O)=O)c1Cl)S(C)(=O)=O", "Zea mays", "Herbicidal activity", 0),
    ("CN(C)S(=O)(=O)Oc1c(Cl)ccc(C2=C(O)c3ncccc3CS2(=O)=O)c1Cl", "Zea mays", "Herbicidal activity", 0),
    ("CS(=O)(=O)N(c1c(Cl)ccc(C2=C(O)c3ncccc3CS2(=O)=O)c1Cl)C1CC1", "Zea mays", "Herbicidal activity", 0),
]

Lab book: Herbicidal activity of CCN(c1c(Cl)ccc(C2=C(O)c3ncccc3CS2(=O)=O)c1Cl)S(C)(=O)=O noted as 0

Lab book: Herbicidal activity of CN(c1c(Cl)ccc(C2=C(O)c3ncccc3CS2(=O)=O)c1Cl)S(=O)(=O)C1CC1 noted as 15
